# Tested On: 11b-HSD2 (Homo sapiens, UniProt P80365)
# Construct: endogenous in cells
# Sequence (P80365 whole entry): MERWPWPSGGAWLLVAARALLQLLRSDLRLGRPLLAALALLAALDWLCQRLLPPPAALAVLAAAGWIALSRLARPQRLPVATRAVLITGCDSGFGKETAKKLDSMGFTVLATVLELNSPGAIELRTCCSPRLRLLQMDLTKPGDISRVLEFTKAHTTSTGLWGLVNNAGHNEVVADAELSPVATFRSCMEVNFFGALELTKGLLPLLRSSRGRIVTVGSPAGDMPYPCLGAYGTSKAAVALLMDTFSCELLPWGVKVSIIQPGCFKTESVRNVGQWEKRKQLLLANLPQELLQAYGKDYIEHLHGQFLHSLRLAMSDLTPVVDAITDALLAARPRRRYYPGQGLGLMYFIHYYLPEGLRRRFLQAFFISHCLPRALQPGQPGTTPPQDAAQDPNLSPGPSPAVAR
# Test Summary: Cellular assay, 11b-HSD2 activity in HepG2 cells
# Settings: 4 hour pre-incubation, pIC50 scored, read-out: [C2] HSD2 cellular HepG2 Score
# Method: The effects on 11b-HSD2 activity was studied in HepG2 and LCC-PK1-cells HepG2-cells (ATCC HB-8065) were seeded in 12 well plates at a density of 100,000 cells/ml and grown at 37° C. in a humidified 5% CO2 atmosphere in MEM-Rega-3 medium supplemented with 10% heat inactivated foetal calf serum, 2 mM L-glutamine and sodium bicarbonate). Medium was refreshed twice a week. Following a 4 hour pre-incubation with test compound, 0.5 μCi ^3H-cortisol or corticosterone, was added to the cultures. […]
pIC50: −log10 of the molar value.
Could you please report measured pIC50 for the items listed next?

These solved cases illustrate the format of a correct answer.
{"columns": ["Compound", "Tested On", "pIC50"],
 "data": [
  ["COc1cccc2c1CC1CN(C3C4CC5CC(C4)CC3C5)C(=O)C1C2 (stereo not shown)", "11b-HSD2 (Homo sapiens, UniProt P80365)", "5.00 to 6.00"],
  ["COc1ccc2c(c1)CC1C(=O)N(C3C4CC5CC(C4)CC3C5)CC1C2 (stereo not shown)", "11b-HSD2 (Homo sapiens, UniProt P80365)", "< 5.00"],
  ["O=C1[C@@H]2CCc3ccccc3[C@H]2CN1[C@H]1[C@@H]2CC3C[C@H]1C[C@](F)(C3)C2", "11b-HSD2 (Homo sapiens, UniProt P80365)", "> 6.00"],
  ["O=C1[C@@H]2Cc3ccccc3C[C@@H]2CN1[C@@H]1[C@@H]2CC3C[C@H]1C[C@](O)(C3)C2", "11b-HSD2 (Homo sapiens, UniProt P80365)", "< 5.00"],
  ["O=C1[C@H]2CCc3ccccc3[C@@H]2CN1CC12CC3CC(CC(C3)C1)C2", "11b-HSD2 (Homo sapiens, UniProt P80365)", "5.00 to 6.00"]
]}

Go through the items and report each one's pIC50.
1. O=C1[C@@H]2CCc3ccccc3[C@H]2CN1[C@H]1[C@@H]2CC3C[C@H]1C[C@](O)(C3)C2
2. O=C1[C@H]2Cc3ccccc3C[C@H]2CN1[C@H]1[C@@H]2CC3C[C@H]1C[C@](O)(C3)C2
3. O=C1N(C2C3CC4CC(C3)CC2C4)CC2CCc3ccccc3N12 (stereo not shown)
4. O=C1N(CC23CC4CC(CC(C4)C2)C3)CC2c3ccccc3CCN12 (stereo not shown)
5. O=C1[C@@H]2CCc3ccccc3[C@@H]2CN1CC12CC3CC(CC(C3)C1)C2

Result:
1: > 6.00; 2: 5.00 to 6.00; 3: < 5.00; 4: 5.00 to 6.00; 5: 5.00 to 6.00

Go through the items and report each one's pIC50.
1. O=C1[C@@H]2CCc3ccccc3[C@@H]2CN1C1C2CC3CC(C2)CC1C3 (stereo partly shown)
2. O=C1[C@H]2Cc3ccsc3C[C@@H]2CN1C1C2CC3CC(C2)CC1C3 (stereo partly shown)
3. O=C1[C@H]2CCc3ccccc3[C@@H]2CN1C1C2CC3CC(C2)CC1C3 (stereo partly shown)
4. O=C1N2CCc3ccccc3C2CN1C1C2CC3CC(C2)CC1C3 (stereo not shown)

Result:
1. 5.00 to 6.00
2. 5.00 to 6.00
3. > 6.00
4. > 6.00

Go through the items and report each one's pIC50.
1. O=C1[C@H]2Cc3cnccc3C[C@H]2CN1[C@@H]1[C@@H]2CC3C[C@H]1C[C@](O)(C3)C2
2. O=C1C2=Cc3cnccc3CC2CN1[C@H]1[C@@H]2CC3C[C@H]1C[C@](O)(C3)C2 (stereo partly shown)

Result:
["< 5.00", "< 5.00"]

---

# Tested On: 11b-HSD2 (Homo sapiens)
# Construct: endogenous in cells
# Test Summary: Cellular assay, 11b-HSD2 activity in HepG2 cells
# Settings: 4 hour pre-incubation, pIC50 scored, read-out: [C2] HSD2 cellular HepG2 Score
# Protocol: The effects on 11b-HSD2 activity was studied in HepG2 and LCC-PK1-cells HepG2-cells (ATCC HB-8065) were seeded in 12 well plates at a density of 100,000 cells/ml and grown at 37° C. in a humidified 5% CO2 atmosphere in MEM-Rega-3 medium supplemented with 10% heat inactivated foetal calf serum, 2 mM L-glutamine and sodium bicarbonate). Medium was refreshed twice a week. Following a 4 hour pre-incubation with test compound, 0.5 μCi ^3H-cortisol or corticosterone, was added to the cultures. […]
Could you please report measured IC50 for the items listed next?

These solved cases illustrate the format of a correct answer.
{"columns": ["Compound", "IC50"],
 "data": [
  ["O=C1N2CCc3ccccc3C2CN1[C@H]1[C@@H]2CC3C[C@H]1C[C@](O)(C3)C2 (some centres unmarked)", "< 1000 nM"],
  ["O=C1N2CCc3c(Br)cccc3C2CN1C1C2CC3CC(C2)CC1C3 (centres unmarked)", "< 1000 nM"],
  ["O=C1N(C2C3CC4CC(C3)CC2C4)C[C@H]2Cc3ccccc3CN12 (some centres unmarked)", "1000 to 10000 nM"],
  ["O=C1[C@@H]2CCc3ccccc3[C@@H]2CN1[C@H]1[C@@H]2CC3C[C@H]1C[C@](O)(C3)C2", "< 1000 nM"],
  ["O=C1[C@@H]2Cc3cccnc3C[C@@H]2CN1[C@@H]1[C@@H]2CC3C[C@H]1C[C@](O)(C3)C2", "> 10000 nM"]
]}

Go through the items and report each one's IC50.
1. O=C1[C@H]2Cc3ccccc3CN2CN1C1C2CC3CC(C2)CC1C3 (some centres unmarked)
2. O=C1[C@H]2CCc3ccccc3[C@@H]2CN1C12CC3CC(CC(C3)C1)C2

Result:
1. > 10000 nM
2. < 1000 nM

// compound O=C1C2Cc3ccccc3CC2CN1C1C2CC3CC(C2)CC1C3 (centres unmarked) , assay 11b-HSD2 (Homo sapiens), IC50 value: 1000 to 10000 nM

---

# Tested On: hHSD1 (Homo sapiens, UniProt P28845)
# Sequence (P28845 whole entry): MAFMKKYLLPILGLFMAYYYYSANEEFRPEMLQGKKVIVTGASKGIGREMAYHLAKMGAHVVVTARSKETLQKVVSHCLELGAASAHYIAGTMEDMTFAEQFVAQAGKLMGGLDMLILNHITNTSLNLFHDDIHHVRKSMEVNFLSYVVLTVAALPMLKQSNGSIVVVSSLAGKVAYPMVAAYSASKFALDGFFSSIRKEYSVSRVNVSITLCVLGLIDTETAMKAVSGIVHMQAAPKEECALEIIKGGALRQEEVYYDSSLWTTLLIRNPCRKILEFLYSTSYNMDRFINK
# Test Summary: Enzymatic assay, 11b-HSD1 reductase activity (conversion of cortisone into cortisol), recombinant protein
# Assay type: biochemical
# Settings: 2 μM cortisone, 180 μM NADPH, pH 7.2, pIC50 scored, read-out: [C1] hHSD1 reductase Score
pIC50: −log10 of the molar value.
Parameter: pIC50

These solved cases illustrate the format of a correct answer.
{"columns": ["Molecule", "pIC50"],
 "data": [
  ["O=C1[C@@H]2CCc3ccccc3[C@H]2CN1[C@H]1[C@@H]2CC3C[C@H]1C[C@](O)(C3)C2", "> 6.00"],
  ["O=C1[C@H]2CCc3ccccc3[C@@H]2CN1CC12CC3CC(CC(C3)C1)C2", "> 6.00"],
  ["O=C1[C@H]2CCc3ccccc3[C@@H]2CN1C1C2CC3CC(C2)CC1C3 (stereo partly shown)", "> 6.00"]
]}

Go through the items and report each one's pIC50.
1. O=C1N2CCc3ccc(Br)cc3C2CN1C1C2CC3CC(C2)CC1C3 (stereo not shown)
2. O=C1C2Cc3ccccc3CC2CN1C1C2CC3CC(C2)CC1C3 (stereo not shown)
3. O=C1N(C2C3CC4CC(C3)CC2C4)CC2CCc3ccccc3N12 (stereo not shown)
4. O=C1N2CCc3ccccc3C2CN1[C@@H]1[C@@H]2CC3C[C@H]1C[C@](O)(C3)C2 (stereo partly shown)
5. O=C1N2CCc3ccccc3C2CN1[C@H]1[C@@H]2CC3C[C@H]1C[C@](O)(C3)C2 (stereo partly shown)
6. O=C1[C@@H]2Cc3ccccc3C[C@@H]2CN1[C@@H]1[C@@H]2CC3C[C@H]1C[C@](O)(C3)C2
7. COc1ccc2c(c1)CC1C(=O)N(C3C4CC5CC(C4)CC3C5)CC1C2 (stereo not shown)
8. O=C1[C@@H]2Cc3cccnc3C[C@@H]2CN1[C@@H]1[C@@H]2CC3C[C@H]1C[C@](O)(C3)C2

Result:
> 6.00
> 6.00
< 5.00
5.00 to 6.00
> 6.00
5.00 to 6.00
> 6.00
< 5.00

---

Could you please report measured IC50 for the items listed next?
# Tested On: hHSD1 (Homo sapiens)
# Test Summary: Enzymatic assay, 11b-HSD1 reductase activity (conversion of cortisone into cortisol), recombinant protein
# Settings: 2 μM cortisone, 180 μM NADPH, pH 7.2, pIC50 scored, read-out: [C1] hHSD1 reductase Score

Go through the items and report each one's IC50.
1. O=C1C2=Cc3cnccc3CC2CN1C1C2CC3CC(C2)CC1C3 (stereo not drawn) [Compound 22]
2. O=C1[C@H]2Cc3ccccc3CN2CN1C1C2CC3CC(C2)CC1C3 (stereo partly drawn) [Compound 4]

Result:
1: 1 to 10 µM; 2: > 10 µM
